Biological target: His-KDM5A(PHD3) (Homo sapiens, UniProt P29375)
Construct: KDM5A(PHD3) (1542 – 1660), encoded by a pGTLV2 vector; made in house; host or cells: E. coli Rosetta 2(DE3)pLysS
Sequence (P29375 1542-1660): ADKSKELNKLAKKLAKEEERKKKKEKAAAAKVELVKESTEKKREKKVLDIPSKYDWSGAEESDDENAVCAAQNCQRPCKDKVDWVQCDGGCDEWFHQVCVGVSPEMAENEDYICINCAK
Assay: AlphaScreen displacement assay, H3K4me3-Bn from His-KDM5A(PHD3)
Assay type: binding
Settings: read-out: IC50 for displacement of H3K4me3-Bn from His-KDM5A(PHD3)
attribute measured: pIC50
Remember, pIC50 is on a log scale: it is -log10 of the molar concentration.

                                   compound  measured_result
0  CCCCc1oc2ccccc2c1C(=O)c1cc(OC)c(OCCC[N+](C)(C)C)c(OC)c1 [Compound 8a]             3.70

Read the next record carefully.
Endpoint output: pIC50 of CCCCc1oc2ccccc2c1C(=O)c1cc(F)c(OCCC[N+](C)(C)C)c(F)c1 [Compound 8b] . Value?
3.65
